# Tested on: LOX IMVI melanoma
# assaySummary: NCI-60 one-dose screen, 48 h
# details: 10 µM unless noted
Compounds without any hit were thinned out: in the full panel of roughly 83,000, 20% have a hit. The source made the active and inactive calls. Rule for the calls: active = growth percent below 10; inactive = the rest.
Write down one outcome, taken from active, inactive

CN1CCN(CC(=O)Nc2nc(-c3cccc(NS(=O)(=O)c4cccc5c(N(C)C)cccc45)c3)cs2)CC1    inactive
COc1ccc(Cl)cc1NC(=O)C(Br)C(Br)C(=O)O (stereo not drawn)    active
O=C(c1ccccc1)c1c(/C=C/c2ccc(Cl)cc2)nc2ccccc2c1/C=C/c1cccs1    inactive
O=C(COc1ccc(/C=C2\Oc3ccccc3C2=O)cc1)Nc1nc2ccccc2s1    active
COc1cccc(C(=O)NCCCNc2cc(-c3cn(-c4ccccc4)nc3-c3cccc(OC)c3)ccn2)c1    inactive

Qu. State the result this test recorded for CCCCCCCCCCCC(c1ccccc1)[N+](C)(C)C (stereo not drawn) .
Ans. active

----------
# Tested on: PC-3 prostate
# assaySummary: NCI-60 one-dose screen, 48 h
# details: 10 µM unless noted
The panel holds about 83,000 compounds, 20% with a hit somewhere; the sample as a whole holds those more often. Active and inactive are the calls of the source. Rule for the calls: active = growth percent below 10; inactive = the rest.
Write down one outcome, taken from true (1) (active), false (0) (inactive)

Known results for compounds:
COc1ccccc1N1C(=O)/C(=C/C2=Cc3ccccc3OC2)SC1=S    false (0)
CN(C)c1ccc(/C=C/C(=O)c2cccc(Nc3nc(Nc4ccccc4)nc(Nc4ccccc4)n3)c2)cc1    false (0)
CCOc1c(C#N)nnc2c(C#N)c(NC(=O)c3ccccc3)nn12    false (0)

Qu. State the result this test recorded for COc1cc(C2CC(=O)Nc3c2c(C)nn3-c2nc3ccccc3[nH]2)cc2c1OCC(=O)N2 (centres undefined) .
Ans. false (0)

Qu. State the result this test recorded for COc1nc2c(c(=O)n1C)CN(c1ccccc1)C(=O)CN2C .
Ans. false (0)

Qu. State the result this test recorded for O=S(=O)(Nc1cccc(Cl)c1)c1ccc(-c2cnc(C3CC3)o2)cc1 .
Ans. false (0)

Qu. State the result this test recorded for COc1ccc(-c2cc(-c3ccc(Nc4nc(Nc5ccc(Cl)cc5)nc(Nc5ccc(Cl)cc5)n4)cc3)nc(N)c2C#N)cc1 .
Ans. true (1)

Qu. State the result this test recorded for O=C1/C(=C/c2ccc(Br)cc2)C=C(c2ccccc2)N1CCc1ccccc1 .
Ans. false (0)

Qu. State the result this test recorded for COc1cc(N=Nc2cc(Cc3ccc(N(C)C)cc3)c(N)cc2N(C)C)c2ncccc2c1 .
Ans. true (1)

----------
# System: SW-620 colon
# assaySummary: NCI-60 one-dose screen, 48 h
# details: 10 µM unless noted
About 83,000 compounds went through this panel and 20% of them were active in at least one assay; those are over-represented in the sample as a whole. Activity calls are given as the source filed them. Rule for the calls: active = growth percent below 10; inactive = the rest.
Write down one outcome, taken from class 1 for active, class 0 for inactive

Known results for compounds:
CCOC(CN=Cc1cc(C)c2[nH]c3ccccc3c2c1C)OCC    class 0
Cc1cc(NCCCCNc2ccnc3cc(Cl)ccc23)nc(Nc2ccc(C(=O)N3CCCC3)cc2)n1    class 1
COC(=O)c1c2c(c(C)[n+]([O-])c1C)C(=O)C(NCc1ccc(F)c(Cl)c1)=CC2=O    class 1
Cc1c(C)c2c(c(C)c1OCC(=O)O)CC[C@@](C)(CCC[C@@H](C)CCC[C@@H](C)CCCC(C)C)O2    class 1
COC(=O)[C@]12CC[C@@H](C)[C@H](C)[C@@H]1C1=CC[C@@H]3[C@@]4(C)C(C=O)=C[C@@](C)(COC(C)=O)[C@@H]4[C@H](O)C[C@@]3(C)[C@]1(C)CC2    class 1
COc1ccc(C2C(c3nn[nH]n3)=C(N)Oc3c2ccc2ccccc32)cc1 (configuration not stated)    class 0

Qu. State the result this test recorded for Cc1occc1-c1n[nH]c(=S)n1N1C(=O)CSC1=S .
Ans. class 0

Qu. State the result this test recorded for CC/C=C/C/C=C/C/C=C/C/C=C/C/C=C/C/C=C/CCC(=O)Nc1ccn([C@@H]2O[C@H](CO)[C@@H](O)C2(F)F)c(=O)n1 .
Ans. class 0

Qu. State the result this test recorded for Cc1ccc2[nH]c(=O)c3c(c2c1)OC(N)=C(C#N)C31c2cc(Br)ccc2-c2ccc(Br)cc21 .
Ans. class 0

Qu. State the result this test recorded for COc1ccc(/C=C/c2c(C(=O)/C=C/c3ccc(F)cc3)c(C)nc3ccccc23)cc1 .
Ans. class 0

Qu. State the result this test recorded for O=C(CC(SCc1ccccc1)c1ccccc1)c1ccccc1 (configuration not stated) .
Ans. class 0

Qu. State the result this test recorded for c1c[nH]c(CNC2CCCCC2)c1 .
Ans. class 0

Qu. State the result this test recorded for CC1O[C@@H](OC2[C@H](OC(=O)/C=C/c3ccc(O)c(O)c3)C(COC3O[C@H](C)C(O)C(O)[C@@H]3O)O[C@@H](OCCc3ccc(O)c(O)c3)[C@H]2O)[C@@H](O)C(O)[C@H]1O (some centres not stated) .
Ans. class 0

Qu. State the result this test recorded for O=C1/C(=C/c2ccc(Br)cc2)C=C(c2ccccc2)N1CCc1ccccc1 .
Ans. class 0

Qu. State the result this test recorded for O=[N+]([O-])c1ccc(-c2cc(-c3ccc(Nc4nc(Nc5ccc(Cl)cc5)nc(Nc5ccc(Cl)cc5)n4)cc3)no2)cc1 .
Ans. class 0

Qu. State the result this test recorded for CCCCCCCCCCCCCCCCCC1=NCCN1CCOC1=C(Cl)C(=O)c2ccccc2C1=O .
Ans. class 1

Qu. State the result this test recorded for Cc1ccc2nc(NC(=O)CSc3nc(-c4ccccc4)c(C#N)c(=O)n3Cc3ccccc3)sc2c1 .
Ans. class 0
